Target: cAMP-dependent protein kinase catalytic subunit alpha (Bos taurus)
Assay: In vitro for inhibitory activity against cAMP-dependent protein kinase from bovine heart (A-kinase)
pIC50: −log10 of the molar value.
PROPERTY MEASURED: pIC50

{"COMPOUND": "O=C1NCc2c1c1c3ccccc3[nH]c1c1[nH]c3ccccc3c21", "SYSTEM": "cAMP-dependent protein kinase catalytic subunit alpha (Bos taurus)", "ENDPOINT RESULT": "< 5.00"}
{"COMPOUND": "Cn1c2ccccc2c2c3c(c4c5ccccc5n(CC(F)F)c4c21)CNC3=O", "SYSTEM": "cAMP-dependent protein kinase catalytic subunit alpha (Bos taurus)", "ENDPOINT RESULT": 5.62}
{"COMPOUND": "Cn1c2ccccc2c2c3c(c4c5ccccc5[nH]c4c21)C(=O)NC3", "SYSTEM": "cAMP-dependent protein kinase catalytic subunit alpha (Bos taurus)", "ENDPOINT RESULT": "< 5.00"}
{"COMPOUND": "Cn1c2ccccc2c2c3c(c4c5ccccc5n(C)c4c21)C(=O)NC3", "SYSTEM": "cAMP-dependent protein kinase catalytic subunit alpha (Bos taurus)", "ENDPOINT RESULT": "< 4.00"}
{"COMPOUND": "N#CCCn1c2ccccc2c2c3c(c4c5ccccc5[nH]c4c21)C(=O)NC3", "SYSTEM": "cAMP-dependent protein kinase catalytic subunit alpha (Bos taurus)", "ENDPOINT RESULT": "< 5.00"}
{"COMPOUND": "CN1Cc2c(c3c4ccccc4n(C)c3c3c2c2ccccc2n3CCC#N)C1=O", "SYSTEM": "cAMP-dependent protein kinase catalytic subunit alpha (Bos taurus)", "ENDPOINT RESULT": "< 4.52"}
{"COMPOUND": "O=C1NCc2c1c1c3ccccc3[nH]c1c1c2c2ccccc2n1CC(O)CO (configuration not stated)", "SYSTEM": "cAMP-dependent protein kinase catalytic subunit alpha (Bos taurus)", "ENDPOINT RESULT": 5.32}
{"COMPOUND": "CCn1c2ccccc2c2c3c(c4c5ccccc5n(CC)c4c21)C(=O)NC3", "SYSTEM": "cAMP-dependent protein kinase catalytic subunit alpha (Bos taurus)", "ENDPOINT RESULT": "< 5.00"}
{"COMPOUND": "CCn1c2ccccc2c2c3c(c4c5ccccc5n(CCC#N)c4c21)CNC3=O", "SYSTEM": "cAMP-dependent protein kinase catalytic subunit alpha (Bos taurus)", "ENDPOINT RESULT": 5.20}
{"COMPOUND": "CCCn1c2ccccc2c2c3c(c4c5ccccc5n(C)c4c21)C(=O)NC3", "SYSTEM": "cAMP-dependent protein kinase catalytic subunit alpha (Bos taurus)", "ENDPOINT RESULT": "< 4.52"}
{"COMPOUND": "Cn1c2ccccc2c2c3c(c4c5ccccc5n(CCC#N)c4c21)CNC3=O", "SYSTEM": "cAMP-dependent protein kinase catalytic subunit alpha (Bos taurus)", "ENDPOINT RESULT": "< 4.00"}
{"COMPOUND": "O=C(O)CCn1c2ccccc2c2c3c(c4c5ccccc5[nH]c4c21)C(=O)NC3", "SYSTEM": "cAMP-dependent protein kinase catalytic subunit alpha (Bos taurus)", "ENDPOINT RESULT": "< 4.00"}

====

Target: Myosin light chain kinase, smooth muscle (Gallus gallus, UniProt P11799)
Sequence (P11799 whole entry): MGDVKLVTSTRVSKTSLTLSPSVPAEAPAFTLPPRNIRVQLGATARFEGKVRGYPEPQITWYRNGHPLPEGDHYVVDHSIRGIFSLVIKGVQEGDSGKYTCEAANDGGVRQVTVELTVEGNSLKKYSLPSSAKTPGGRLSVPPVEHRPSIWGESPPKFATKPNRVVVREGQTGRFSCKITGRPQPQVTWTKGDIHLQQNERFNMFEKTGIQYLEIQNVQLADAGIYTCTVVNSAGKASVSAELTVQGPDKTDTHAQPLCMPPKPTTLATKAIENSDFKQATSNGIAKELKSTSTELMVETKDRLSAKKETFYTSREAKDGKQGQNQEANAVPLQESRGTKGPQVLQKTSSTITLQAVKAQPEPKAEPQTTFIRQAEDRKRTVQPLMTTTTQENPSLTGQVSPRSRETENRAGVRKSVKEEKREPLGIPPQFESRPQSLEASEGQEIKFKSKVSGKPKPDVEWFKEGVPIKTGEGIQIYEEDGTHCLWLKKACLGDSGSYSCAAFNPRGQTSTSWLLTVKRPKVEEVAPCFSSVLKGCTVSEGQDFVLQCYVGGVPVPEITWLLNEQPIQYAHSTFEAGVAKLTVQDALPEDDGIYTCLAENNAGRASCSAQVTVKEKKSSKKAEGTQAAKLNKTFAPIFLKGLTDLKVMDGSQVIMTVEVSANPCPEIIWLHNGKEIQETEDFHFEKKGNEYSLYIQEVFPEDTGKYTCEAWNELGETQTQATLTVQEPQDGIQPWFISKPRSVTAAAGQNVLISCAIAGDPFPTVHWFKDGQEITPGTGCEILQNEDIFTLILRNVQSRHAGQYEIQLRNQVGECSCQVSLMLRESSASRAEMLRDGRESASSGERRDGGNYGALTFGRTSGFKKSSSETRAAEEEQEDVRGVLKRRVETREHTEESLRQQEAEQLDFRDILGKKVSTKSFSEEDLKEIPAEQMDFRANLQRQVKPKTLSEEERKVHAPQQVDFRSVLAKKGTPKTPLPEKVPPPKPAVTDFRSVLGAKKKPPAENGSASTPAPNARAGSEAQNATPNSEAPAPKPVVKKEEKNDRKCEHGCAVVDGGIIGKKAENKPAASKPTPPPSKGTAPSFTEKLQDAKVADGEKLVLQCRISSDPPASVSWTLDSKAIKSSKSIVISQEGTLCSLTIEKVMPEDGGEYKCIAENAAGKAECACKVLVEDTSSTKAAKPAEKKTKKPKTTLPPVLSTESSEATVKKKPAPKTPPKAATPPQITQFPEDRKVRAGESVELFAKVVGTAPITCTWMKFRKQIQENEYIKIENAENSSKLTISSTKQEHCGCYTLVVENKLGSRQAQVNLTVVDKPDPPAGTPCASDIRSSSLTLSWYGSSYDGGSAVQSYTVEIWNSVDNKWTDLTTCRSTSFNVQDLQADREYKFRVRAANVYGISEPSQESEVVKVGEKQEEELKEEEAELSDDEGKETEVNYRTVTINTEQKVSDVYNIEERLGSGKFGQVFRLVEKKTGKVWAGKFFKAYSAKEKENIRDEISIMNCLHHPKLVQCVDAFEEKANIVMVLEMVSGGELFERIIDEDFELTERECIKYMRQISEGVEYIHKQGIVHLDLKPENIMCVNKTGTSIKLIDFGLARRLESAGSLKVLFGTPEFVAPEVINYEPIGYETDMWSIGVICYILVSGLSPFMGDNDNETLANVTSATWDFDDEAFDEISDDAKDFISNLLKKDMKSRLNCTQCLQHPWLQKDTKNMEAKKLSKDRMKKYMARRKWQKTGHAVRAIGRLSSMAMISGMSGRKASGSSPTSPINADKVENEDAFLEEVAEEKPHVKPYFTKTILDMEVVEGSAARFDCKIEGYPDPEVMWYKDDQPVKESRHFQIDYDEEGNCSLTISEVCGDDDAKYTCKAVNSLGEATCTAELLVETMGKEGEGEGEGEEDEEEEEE
Assay: In vitro for inhibitory activity against myosin light-chain kinase from chicken gizzard (M-kinase)
A collection of molecules and their measured IC50
PROPERTY MEASURED: IC50 (nM)

{"MOLECULE": "Cn1c2ccccc2c2c3c(c4c5ccccc5n(C)c4c21)C(=O)NC3", "SYSTEM": "Myosin light chain kinase, smooth muscle (Gallus gallus, UniProt P11799)", "VALUE COMPARATOR": "=", "ENDPOINT RESULT": 5800}
{"MOLECULE": "Cn1c2ccccc2c2c3c(c4c5ccccc5[nH]c4c21)C(=O)NC3", "SYSTEM": "Myosin light chain kinase, smooth muscle (Gallus gallus, UniProt P11799)", "VALUE COMPARATOR": "=", "ENDPOINT RESULT": 1100}
{"MOLECULE": "CCn1c2ccccc2c2c3c(c4c5ccccc5n(CC)c4c21)C(=O)NC3", "SYSTEM": "Myosin light chain kinase, smooth muscle (Gallus gallus, UniProt P11799)", "VALUE COMPARATOR": "=", "ENDPOINT RESULT": 1200}
{"MOLECULE": "O=C1NCc2c1c1c3ccccc3[nH]c1c1[nH]c3ccccc3c21 [STAUROSPORINONE]", "SYSTEM": "Myosin light chain kinase, smooth muscle (Gallus gallus, UniProt P11799)", "VALUE COMPARATOR": "=", "ENDPOINT RESULT": 2800}
{"MOLECULE": "CCCn1c2ccccc2c2c3c(c4c5ccccc5n(C)c4c21)C(=O)NC3", "SYSTEM": "Myosin light chain kinase, smooth muscle (Gallus gallus, UniProt P11799)", "VALUE COMPARATOR": "=", "ENDPOINT RESULT": 11000}
{"MOLECULE": "CN1Cc2c(c3c4ccccc4n(C)c3c3c2c2ccccc2n3CCC#N)C1=O", "SYSTEM": "Myosin light chain kinase, smooth muscle (Gallus gallus, UniProt P11799)", "VALUE COMPARATOR": ">", "ENDPOINT RESULT": 10000}

====

Molecular target: Protein kinase C (PKC)
Experiment: In vitro for inhibitory activity against protein kinase C from rat brain
Could you mark each record 1 (yes) if its IC50 falls strictly under 100 nM, and 0 (no) if it equals or exceeds it?

{"MOL SMILES": "NC(=O)CCn1c2ccccc2c2c3c(c4c5ccccc5[nH]c4c21)C(=O)NC3", "SYSTEM": "Protein kinase C (PKC)", "LABEL": "0 (no)"}
{"MOL SMILES": "CCn1c2ccccc2c2c3c(c4c5ccccc5n(CC)c4c21)C(=O)NC3", "SYSTEM": "Protein kinase C (PKC)", "LABEL": "0 (no)"}
{"MOL SMILES": "Cn1c2ccccc2c2c3c(c4c5ccccc5[nH]c4c21)C(=O)NC3", "SYSTEM": "Protein kinase C (PKC)", "LABEL": "0 (no)"}
{"MOL SMILES": "Cn1c2ccccc2c2c3c(c4c5ccccc5n(CCCN=[N+]=[N-])c4c21)CNC3=O", "SYSTEM": "Protein kinase C (PKC)", "LABEL": "1 (yes)"}
